Endpoint: IC50. System: Aromatase (Homo sapiens, UniProt P11511). Items follow.
Sequence (P11511 whole entry): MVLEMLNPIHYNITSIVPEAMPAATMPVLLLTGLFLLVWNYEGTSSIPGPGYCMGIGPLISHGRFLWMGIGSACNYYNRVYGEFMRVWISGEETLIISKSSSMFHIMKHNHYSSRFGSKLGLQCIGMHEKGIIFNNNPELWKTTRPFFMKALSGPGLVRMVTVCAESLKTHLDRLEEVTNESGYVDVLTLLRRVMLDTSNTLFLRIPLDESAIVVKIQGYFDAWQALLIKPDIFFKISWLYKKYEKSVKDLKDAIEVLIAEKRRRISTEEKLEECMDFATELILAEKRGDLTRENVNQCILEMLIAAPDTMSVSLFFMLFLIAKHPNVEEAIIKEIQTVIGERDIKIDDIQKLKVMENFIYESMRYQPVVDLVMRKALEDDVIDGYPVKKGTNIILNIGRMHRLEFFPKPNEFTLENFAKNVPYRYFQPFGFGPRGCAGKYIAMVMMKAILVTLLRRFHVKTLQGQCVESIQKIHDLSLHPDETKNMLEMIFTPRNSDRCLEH
The reply should contain only the number, in nM.

- Oc1ccc(O)c(-c2cn3ccsc3n2)c1: 2600

Now consider the entry below.
Look up Aromatase (Homo sapiens, UniProt P11511) data: IC50 of `Cc1cn2cc(-c3ccc(O)c(O)c3O)nc2s1` , then report it. 3200

###

assay: Half life in human liver microsomes at 1 uM after 1 to 60 mins by UHPLC-MS/MS analysis; format: ADME, Microsome
VALUE_KIND: half-life at 1 µM (min)
# unit: min | format: bare number

# count of solved cases: 2
* Oc1ccc(O)c(-c2cn3ccsc3n2)c1 | 5.9
* Cc1cn2cc(-c3ccc(O)c(O)c3O)nc2s1 | 11.2

Field: next compound
Dear colleague, please send me the reported half-life at 1 µM for CC(C)NCC(O)COc1cccc2ccccc12 (stereo not drawn) when you can. 20.8

###

biological target: Nitric oxide synthase, inducible (Mus musculus, UniProt P29477); test: Inhibition of iNOS-mediated NO production in mouse RAW264.7 cells by Griess assay
Sequence (P29477 whole entry): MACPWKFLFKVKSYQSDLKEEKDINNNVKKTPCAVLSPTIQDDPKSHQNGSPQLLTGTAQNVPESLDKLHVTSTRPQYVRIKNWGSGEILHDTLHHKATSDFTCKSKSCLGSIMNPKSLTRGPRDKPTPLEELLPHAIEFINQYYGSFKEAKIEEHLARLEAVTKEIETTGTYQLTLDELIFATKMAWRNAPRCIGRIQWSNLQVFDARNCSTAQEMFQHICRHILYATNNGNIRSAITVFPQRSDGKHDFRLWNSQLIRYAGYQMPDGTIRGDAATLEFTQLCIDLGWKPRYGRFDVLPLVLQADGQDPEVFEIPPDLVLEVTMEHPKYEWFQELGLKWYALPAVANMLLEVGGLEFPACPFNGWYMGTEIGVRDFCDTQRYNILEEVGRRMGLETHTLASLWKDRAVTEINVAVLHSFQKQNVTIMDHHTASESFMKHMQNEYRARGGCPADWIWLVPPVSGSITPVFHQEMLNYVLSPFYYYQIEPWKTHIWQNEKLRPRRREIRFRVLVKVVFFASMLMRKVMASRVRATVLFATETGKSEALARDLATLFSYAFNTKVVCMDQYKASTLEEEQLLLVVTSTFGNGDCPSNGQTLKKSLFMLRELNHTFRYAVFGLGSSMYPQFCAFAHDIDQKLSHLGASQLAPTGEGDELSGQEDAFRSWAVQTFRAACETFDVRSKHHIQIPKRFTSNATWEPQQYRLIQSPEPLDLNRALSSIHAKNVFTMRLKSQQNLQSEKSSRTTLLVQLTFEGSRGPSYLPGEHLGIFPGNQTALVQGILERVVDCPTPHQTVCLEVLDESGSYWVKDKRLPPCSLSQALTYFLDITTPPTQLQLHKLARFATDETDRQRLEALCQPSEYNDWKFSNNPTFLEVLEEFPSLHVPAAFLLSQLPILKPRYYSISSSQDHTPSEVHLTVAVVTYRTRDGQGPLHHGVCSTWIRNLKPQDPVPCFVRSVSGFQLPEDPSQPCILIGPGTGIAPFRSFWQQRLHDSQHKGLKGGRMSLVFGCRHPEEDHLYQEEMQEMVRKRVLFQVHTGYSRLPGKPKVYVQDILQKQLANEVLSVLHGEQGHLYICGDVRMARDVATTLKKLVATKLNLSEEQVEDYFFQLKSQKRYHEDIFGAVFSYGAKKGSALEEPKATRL
VALUE_KIND: pIC50
The meaning of pIC50 here: minus log10 of the concentration in molar units.

• Cc1cn2cc(-c3ccc(O)c(O)c3O)nc2s1 = 5.17

Continue with the molecule presented below.
For `Oc1ccc(O)c(-c2cn3ccsc3n2)c1` , write its pIC50. 5.19

###

test: Cytotoxicity against mouse RAW264.7 cells assessed as cell survival at 50 uM after 15 mins by SRB assay; type: cell-based; settings: read-out: Survival
VALUE_KIND: viability at 0.25 h, 50 µM (%)
The answer is to be given in %; state only the numeric part.

* Cc1cn2cc(-c3ccc(O)c(O)c3O)nc2s1 | 52.3

# ---- query compound ----
Let me know recorded viability at 0.25 h, 50 µM for `Oc1ccc(O)c(-c2cn3ccsc3n2)c1` , thanks. 48.2

Taken from ChEMBL document CHEMBL2429861.
